Form field: bimolecular quenching constant kq (one value per entry).
# assayed-system: BSA (Bos taurus)
# Construct: purchased Sigma Aldrich
# test-protocol: BSA interaction, fluorescence quenching (Stern–Volmer)
# Type: binding, bovine
# particulars: BSA 50 μM in PBS pH 7.4

| molecule | bimolecular quenching constant kq [M⁻¹ s⁻¹] |
| --- | --- |
| CN(C)C(=S)[S][Au+][c]1ccccc1-c1ccccn1.F[P-](F)(F)(F)(F)F [Complex C2, [Au(ppy)(dmdtc)]PF6] | 1.37e+12 |
| F[P-](F)(F)(F)(F)F.S=C([S][Au+][c]1ccccc1-c1ccccn1)N(Cc1ccccc1)Cc1ccccc1 [Complex C6, [Au(ppy)(dbdtc)]PF6] | 6.44e+12 |
| Cc1ccc(-c2ccccn2)[c]([Au+][S]C(=S)N(C)C)c1.F[P-](F)(F)(F)(F)F [Complex C1, [Au(tpy)(dmdtc)] PF6] | 1.3e+12 |
| CCN(CC)C(=S)[S][Au+][c]1cc(C)ccc1-c1ccccn1.F[P-](F)(F)(F)(F)F [Complex C3, [Au(tpy)(dedtc)]PF6] | 1.9e+12 |
| Cc1ccc2[c](c1)[Au-]1([S]C(N(Cc3ccccc3)Cc3ccccc3)=[S+]1)[n+]1ccccc1-2.F[P-](F)(F)(F)(F)F (centres unmarked) [Complex C5, [Au(tpy)(dbdtc)]PF6] | 4.43e+12 |

The values you see were collected from paper PMC8698672.
